Test: growth inhibition of BT084 medulloblastoma cells, cell-based, ICGC_MB145, cisplatin and BGB IC40 combos (AID 1671461);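 note: cells exposed to drugs for 96 hours; 0% = vehicle DMSO and 100% = high DMSO full killing control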
Reported conditions: drug combinations, measured here: BGB IC40 combination 0.05 uM, at 0.05 µM, stronger effect = higher value
Observed property: inhibition (%)
One number for each entry, in %.

Molecule	Measurement units	inhibition
CCN(CC)CCCC(C)Nc1c2ccc(Cl)cc2nc2ccc(OC)cc12 (centres undefined)	%	-3.72
O=C1c2c(O)ccc(O)c2C(=O)c2c(NCCNCCO)ccc(NCCNCCO)c21	%	-13
CC(=O)OCC(CCn1cnc2cnc(N)nc21)COC(C)=O	%	-14.8

Turning now to a further record.
Lab note: measured inhibition of `O=c1[nH]cc(F)c(=O)[nH]1` was 2.5

----------
Test: CellTiter-Glo luminescent readout of SW480 viability loss, NPC library primary (AID 1117343)
Reported conditions: CellTiter-Glo luminescence; at 20 µM (top of the series)
Calls of active or inactive are those of the source.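 How the source made its calls: active means compounds that lower viability of the colon cancer cells in the luminescence readout, with no numeric limit stated; inactive means the rest.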
Response enum: active, inactive

Molecule	Discrete label
O=C(/C=C/c1ccccc1)NCCO	inactive
COc1cc([C@@H]2c3cc4c(cc3[C@@H](O[C@@H]3O[C@@H]5CO[C@@H](C)O[C@@H]5[C@H](O)[C@@H]3O)[C@H]3COC(=O)[C@H]23)OCO4)cc(OC)c1O	active
CC(=O)OCC(=O)[C@@]12OC(C)(C)O[C@@H]1C[C@H]1[C@@H]3C[C@H](F)C4=CC(=O)C=C[C@]4(C)[C@@]3(F)[C@@H](O)C[C@@]12C	inactive
C=CC[N+]1([C@H]2C[C@H]3[C@@H]4CC[C@H]5C[C@H](OC(C)=O)[C@@H](N6CCCCC6)C[C@]5(C)[C@H]4CC[C@]3(C)[C@H]2OC(=O)CC)CCCCC1	inactive
O=C(O)Cc1csc(-c2ccc(Cl)cc2)n1	inactive
CC(=O)OC[C@H]1O[C@@](COC(C)=O)(O[C@H]2O[C@H](COC(C)=O)[C@@H](OC(C)=O)[C@H](OC(C)=O)[C@H]2OC(C)=O)[C@@H](OC(C)=O)[C@@H]1OC(C)=O	inactive
O=c1[nH]cnc2[nH]ncc12	inactive
O[C@@H]1CO[C@H]2[C@@H]1OC[C@@H]2O	active

Q) Identify the outcome logged in this assay for the molecule shown: `O=C(O)CCC(=O)O`
A) inactive

Q) # lookup: test call for CC(=O)Nc1ccn(C2COC(COC(=O)c3ccccc3)O2)c(=O)n1 (configuration not stated)
A) inactive

Q) For `CCOC(=O)C(C#N)=C(c1ccccc1)c1ccccc1` , what call appears in the results of this test?
A) inactive

Q) Look up the recorded call for CC(C)(C)NCC(O)COc1ccc(NC(=O)NC2CCCCC2)cc1 (configuration not stated) in this test.
A) inactive

Q) Assay outcome for `CC(C)=CCC/C(C)=C/CC/C(C)=C/CCC(=O)OC/C=C(\C)CCC=C(C)C` : what was it?
A) inactive

Q) Outcome logged for `O=C1c2ccccc2CCc2ccccc21` in this assay:
A) inactive

Q) Entry `Nc1nc2ncc(CNc3ccc(C(=O)N[C@@H](CCC(=O)O)C(=O)O)cc3)nc2c(=O)[nH]1` : call = ?
A) inactive

Q) Hey, what did the test say about `O=C(CN1CCN(Cc2ccc3c(c2)OCO3)CC1)N1c2ccccc2Sc2ccccc21` ?
A) active

Q) Please share the test call associated with `CCN1CCCC1=O` .
A) inactive

Q) For this molecule, state the assay outcome: O=P(O)(O)OCC(O)CO (configuration not stated)
A) inactive

Q) Which outcome did this test record for the molecule `Nc1ccc([N+](=O)[O-])c(C(F)(F)F)c1` ?
A) inactive

----------
Answer each item with its documented parasite % of control.
Test: kinase inhibitors against Plasmodium liver-stage infection, cell-based, known kinase inhibitor set, luminescence, hepatoma host viability (AID 624392);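 note: infected cells incubated roughly two days before readout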
Reported conditions: Plasmodium liver stage in hepatoma cells, luciferase luminescence, concentration not given here; stronger effect = lower value
Numbers only, in %.

Completed entries (count: 3):
Compound	parasite % of control / %
Clc1ccc(-c2nn3ncccc3c2-c2ccnc(Nc3ccccc3)n2)cc1	29.7
O=C1NC(O)C(c2c[nH]c3ccccc23)=C1c1c[nH]c2ccccc12 (stereo unspecified)	47.1
COc1ccc(OC)c(C2=C(c3cn(C)c4ccccc34)C(=O)NC2=O)c1	22.1

Count: 7. Required value per item: parasite % of control.
1. CNCC1CCn2c(c(C3=C(c4cn(C)c5ccccc45)C(=O)NC3=O)c3ccccc32)C1 (stereo unspecified)
2. Cn1c(=O)c(Oc2ccc(F)cc2F)cc2cnc(NCC(C)(C)O)nc21
3. Cn1cc(C2=C(c3cccc(Br)c3)C(=O)NC2=O)c2ccccc21
4. Cc1ccc(NC(=O)CC2CC2)cc1-c1ccc(C(=O)NCC2CC2)cc1
5. c1ccc(COc2ccc(Nc3ncnc4ccc(-c5ccco5)cc34)cc2)cc1
6. COc1ccc(C2=C(N3CCc4ccccc43)C(=O)NC2=O)cc1
7. CS(=O)(=O)Nc1cccc(-c2ccc3c(NC(=O)C4CC4)n[nH]c3c2)c1

A)
1: 45.7; 2: 62.1; 3: 39.5; 4: 149; 5: 71.7; 6: 77.5; 7: 233

Parameters: items (list). Returns: parasite % of control for each item.
1. NC(=O)c1sc(-n2cnc3ccc(C(F)(F)F)cc32)cc1OCc1ccccc1Br
2. CCn1c(-c2nonc2N)nc2cncc(C(=O)N3CCNCC3)c21
3. Cc1ccc2c(-c3ccnc(Nc4ccccc4)n3)c(-c3ccc(F)cc3)nn2n1
4. NC(=O)c1sc(-n2cnc3cc(C(F)(F)F)ccc32)cc1OCc1ccccc1Br
5. COc1cccc(-n2ncc3c(N/N=C/c4ccc(F)cc4)ncnc32)c1
6. O=C1NC(=NCCc2cccc(F)c2)SC1=Cc1ccc2ncccc2c1
7. C[C@@H](Oc1cc(-n2cnc3ccc(OCC4CCN(C)CC4)cc32)sc1C(N)=O)c1ccccc1C(F)(F)F

A)
160
140
12.5
113
96.2
54
130

Please state, for each entry, its recorded parasite % of control.
1. N#Cc1c(NC(=O)c2ccc(F)c3ccccc23)sc2c1CCCC2
2. O=C1NC(=O)C(N2CCc3ccccc32)=C1c1ccc(Cl)cc1
3. Fc1ccc(-c2ncn(C3CCNCC3)c2-c2ccnc(Oc3cccc(F)c3)n2)cc1
4. COc1ccccc1-c1cc(/C=C2\C(=O)Nc3ncc(Br)cc32)cc(Br)c1O

A)
1. 163
2. 138
3. 175
4. 116

----------
Answer each item with its documented log fold change Tl+ flux.
System: R275C/Slo1WT/beta2
Test: modulators of BK channel variants, profiling panel, selectivity assay, cell-based, U2OS BacMam, thallium flux, beta subunits (AID 1259406);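 note: initial slope of Thallos dye fluorescence rise after thallium is added; log ratio against the mean of 0.3% DMSO vehicle wells on the same plate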
Reported conditions: at 30 µM
Give bare numbers.

Solved entries:
Compound	Readout value
CN(C)CCC=C1c2ccccc2CCc2ccccc21	0.00351
Cc1onc(-c2c(Cl)cccc2Cl)c1C(=O)N[C@@H]1C(=O)N2[C@@H]1SC(C)(C)[C@@H]2C(=O)O	-0.0106
CC(C)(C)NCC(O)COc1cccc2c1C[C@H](O)[C@H](O)C2 (stereo not given in full)	0.00485
NCc1ccc(S(N)(=O)=O)cc1	-0.0456
COc1ccc(Cl)cc1C(=O)NCCc1ccc(S(=O)(=O)NC(=O)NC2CCCCC2)cc1	0.00644

// each compound listed below needs its log fold change Tl+ flux
1. CC(N=C(NC#N)Nc1ccncc1)C(C)(C)C (stereo not given)
2. C[C@]12CCC(=O)C=C1CC[C@@H]1[C@@H]2[C@@H](O)C[C@@]2(C)[C@H]1CC[C@]2(O)C(=O)CO
3. CC1=C(C(=O)O)N2C(=O)[C@@H](NC(=O)[C@H](N)c3ccccc3)[C@H]2SC1
4. COc1cc2nc(N(C)CCCNC(=O)C3CCCO3)nc(N)c2cc1OC (stereo not given)

A)
1. -0.0219
2. 0.0266
3. -0.0484
4. 0.00335

Given item `Cn1cnc([N+](=O)[O-])c1Sc1ncnc2nc[nH]c12` , the value recorded as its log fold change Tl+ flux is 0.0598

----------
Test: HCT116 colon cancer cell growth inhibition, primary screen, CellTiter-Glo luminescence, NPC library (AID 1117342)
Reported conditions: at 20 µM (top of the series)
Calls of active or inactive are those of the source.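 Rule for the calls: active = compounds that lower survival of HCT116 colon cancer cells in the luminescence readout, no numeric limit stated; inactive = the rest.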
Your reply should match one of these outcome classes. active, inactive

Compound	Discrete label
CCCCCCCCCCCCOS(=O)(=O)O	inactive
O=C(O)c1cc(=O)c2c3nc4ccccc4oc-3cc(=O)c2[nH]1	inactive
CC(=O)N/N=C/c1ccc([N+](=O)[O-])o1	inactive
C[C@H](CCC(=O)O)[C@H]1CC[C@H]2[C@@H]3CC[C@@H]4C[C@H](O)CC[C@]4(C)[C@@H]3C[C@H](O)[C@]12C	active
N#C/C(=C1/SC[C@@H](c2ccc(Cl)cc2Cl)S1)n1ccnc1	active

Let us examine a further case.
Q) Hi team, can someone confirm the assay call for `CC(C)C[C@@H](N)C(=O)O` ?
A) inactive

Hello, the source for this data is PubChem BioAssay, in case you need it.
